Tested on: RERF-LC-KJ
Test: relative viability (nuclei count vs DMSO), 5 days (fraction); higher = more cells survive
Details: first compound 0.03162 µM
Value type: relative viability

{"Compound": "CC(C)Oc1cc(Nc2nc(N[C@@H](C)c3ccc(F)cn3)ncc2Cl)n[nH]1 [AZ23] + CC(=O)Nc1cccc(-n2c(=O)n(C3CC3)c(=O)c3c(Nc4ccc(I)cc4F)n(C)c(=O)c(C)c32)c1 [Trametinib] (partner 0.02 µM)", "Readout number": 0.883}
{"Compound": "CC(C)Oc1cc(Nc2nc(N[C@@H](C)c3ccc(F)cn3)ncc2Cl)n[nH]1 [AZ23] + O=C(CCCCCCC(=O)Nc1ccccc1)NO [Vorinostat] (partner 1 µM)", "Readout number": 0.704}
{"Compound": "CC(C)Oc1cc(Nc2nc(N[C@@H](C)c3ccc(F)cn3)ncc2Cl)n[nH]1 [AZ23] + CS(=O)(=O)N1CCN(Cc2cc3nc(-c4cccc5[nH]ncc45)nc(N4CCOCC4)c3s2)CC1 [Pictilisib] (partner 1 µM)", "Readout number": 0.507}
{"Compound": "CC(C)Oc1cc(Nc2nc(N[C@@H](C)c3ccc(F)cn3)ncc2Cl)n[nH]1 [AZ23] + COc1cc2c(Oc3ccc(NC(=O)C4(C(=O)Nc5ccc(F)cc5)CC4)cc3F)ccnc2cc1OCCCN1CCOCC1 [Foretinib] (partner 0.25 µM)", "Readout number": 0.877}
{"Compound": "CC(C)Oc1cc(Nc2nc(N[C@@H](C)c3ccc(F)cn3)ncc2Cl)n[nH]1 [AZ23] + CS(=O)(=O)CCNCc1ccc(-c2ccc3ncnc(Nc4ccc(OCc5cccc(F)c5)c(Cl)c4)c3c2)o1 [Lapatinib] (partner 2 µM)", "Readout number": 1.15}

###

Test system: NCI-H2405
Assay: relative viability (nuclei count vs DMSO), 5 days (fraction); higher = more cells survive
Conditions: first compound 0.04 µM

{"Molecule": "COc1cc(N2CCC(C(N)=O)CC2)ccc1Nc1nc(N)c(Cl)c(Nc2ccccc2S(=O)(=O)C(C)C)n1 [HG-5-88-01] + CC(=O)c1c(C)c2cnc(Nc3ccc(N4CCNCC4)cn3)nc2n(C2CCCC2)c1=O [Palbociclib] (partner 0.5 µM)", "relative viability": 0.515}
{"Molecule": "COc1cc(N2CCC(C(N)=O)CC2)ccc1Nc1nc(N)c(Cl)c(Nc2ccccc2S(=O)(=O)C(C)C)n1 [HG-5-88-01] + O=C(c1cc(Cc2n[nH]c(=O)c3ccccc23)ccc1F)N1CCN(C(=O)C2CC2)CC1 [Olaparib] (partner 8 µM)", "relative viability": 0.885}

###

Test system: NCI-H1666
Assay: relative viability (nuclei count vs DMSO), 5 days (fraction); higher = more cells survive
Details: first compound 4 µM
Value type: relative viability

{"Compound": "COc1cc(N2CCC(C(N)=O)CC2)ccc1Nc1nc(N)c(Cl)c(Nc2ccccc2S(=O)(=O)C(C)C)n1 [HG-5-88-01] + CS(=O)(=O)N1CCN(Cc2cc3nc(-c4cccc5[nH]ncc45)nc(N4CCOCC4)c3s2)CC1 [Pictilisib] (partner 1 µM)", "Readout number": 0.34}
{"Compound": "Clc1ccc(Nc2nnc(Cc3ccncc3)c3ccccc23)cc1 [Vatalanib] + CC1(C)CCC(c2ccc(Cl)cc2)=C(CN2CCN(c3ccc(C(=O)NS(=O)(=O)c4ccc(N[C@H](CCN5CCOCC5)CSc5ccccc5)c(S(=O)(=O)C(F)(F)F)c4)cc3)CC2)C1 [Navitoclax] (partner 0.5 µM)", "Readout number": 0.845}
{"Compound": "Clc1ccc(Nc2nnc(Cc3ccncc3)c3ccccc23)cc1 [Vatalanib] + CS(=O)(=O)N1CCN(Cc2cc3nc(-c4cccc5[nH]ncc45)nc(N4CCOCC4)c3s2)CC1 [Pictilisib] (partner 1 µM)", "Readout number": 0.499}
{"Compound": "Clc1ccc(Nc2nnc(Cc3ccncc3)c3ccccc23)cc1 [Vatalanib] + CC(C)C[C@H](NC(=O)[C@H](Cc1ccccc1)NC(=O)c1cnccn1)B(O)O [Bortezomib] (partner 0.002 µM)", "Readout number": 0.733}

###

Reported relative viability is given for each of the following molecules.
System: EKVX
Assay: relative viability (nuclei count vs DMSO), 5 days (fraction); higher = more cells survive
Settings: first compound 0.01 µM
Value type: relative viability

{"Molecule": "CC(C)Oc1cc(Nc2nc(N[C@@H](C)c3ccc(F)cn3)ncc2Cl)n[nH]1 [AZ23] + CC(=O)Nc1cccc(-n2c(=O)n(C3CC3)c(=O)c3c(Nc4ccc(I)cc4F)n(C)c(=O)c(C)c32)c1 [Trametinib] (partner 0.02 µM)", "Value type": "relative viability", "Readout number": 0.346}
{"Molecule": "CC(C)Oc1cc(Nc2nc(N[C@@H](C)c3ccc(F)cn3)ncc2Cl)n[nH]1 [AZ23] + CCNC(=O)c1noc(-c2cc(C(C)C)c(O)cc2O)c1-c1ccc(CN2CCOCC2)cc1 [Luminespib] (partner 0.01 µM)", "Value type": "relative viability", "Readout number": 0.861}
{"Molecule": "CC(C)Oc1cc(Nc2nc(N[C@@H](C)c3ccc(F)cn3)ncc2Cl)n[nH]1 [AZ23] + CS(=O)(=O)CCNCc1ccc(-c2ccc3ncnc(Nc4ccc(OCc5cccc(F)c5)c(Cl)c4)c3c2)o1 [Lapatinib] (partner 2 µM)", "Value type": "relative viability", "Readout number": 0.188}
{"Molecule": "CC(C)Oc1cc(Nc2nc(N[C@@H](C)c3ccc(F)cn3)ncc2Cl)n[nH]1 [AZ23] + O=C(CCCCCCC(=O)Nc1ccccc1)NO [Vorinostat] (partner 1 µM)", "Value type": "relative viability", "Readout number": 0.811}

###

Test system: NCI-H1666
Test: relative viability (nuclei count vs DMSO), 5 days (fraction); higher = more cells survive
Settings: first compound 0.4 µM
Reported relative viability is given for each of the following compounds.
Value type: relative viability

{"Compound": "C[C@@H]1CN(CC(=O)Nc2ccc3c(c2)Cc2cccc(-c4cc(=O)cc(N5CCOCC5)o4)c2S3)C[C@H](C)O1 + C[C@@H](Oc1cc(-c2cnn(C3CCNCC3)c2)cnc1N)c1c(Cl)ccc(F)c1Cl [Crizotinib] (partner 1 µM)", "Readout number": 1.11}
{"Compound": "C[C@@H]1CN(CC(=O)Nc2ccc3c(c2)Cc2cccc(-c4cc(=O)cc(N5CCOCC5)o4)c2S3)C[C@H](C)O1 + NC(=O)Nc1cc(-c2cccc(F)c2)sc1C(=O)N[C@H]1CCCNC1 [AZD7762] (partner 0.2 µM)", "Readout number": 0.941}

###

Reported relative viability is given for each of the following molecules.
System: PC-14
Experiment: relative viability (nuclei count vs DMSO), 5 days (fraction); higher = more cells survive
Conditions: first compound 0.4 µM
Value type: relative viability

{"Molecule": "COc1cc(N2CCC(C(N)=O)CC2)ccc1Nc1nc(N)c(Cl)c(Nc2ccccc2S(=O)(=O)C(C)C)n1 [HG-5-88-01] + COc1cc2c(Oc3ccc(NC(=O)C4(C(=O)Nc5ccc(F)cc5)CC4)cc3F)ccnc2cc1OCCCN1CCOCC1 [Foretinib] (partner 0.25 µM)", "Value type": "relative viability", "Result": 0.806}
{"Molecule": "C[C@@H]1CN(CC(=O)Nc2ccc3c(c2)Cc2cccc(-c4cc(=O)cc(N5CCOCC5)o4)c2S3)C[C@H](C)O1 + CCNC(=O)c1noc(-c2cc(C(C)C)c(O)cc2O)c1-c1ccc(CN2CCOCC2)cc1 [Luminespib] (partner 0.01 µM)", "Value type": "relative viability", "Result": 0.15}
{"Molecule": "COc1cc(N2CCC(C(N)=O)CC2)ccc1Nc1nc(N)c(Cl)c(Nc2ccccc2S(=O)(=O)C(C)C)n1 [HG-5-88-01] + CS(=O)(=O)N1CCN(Cc2cc3nc(-c4cccc5[nH]ncc45)nc(N4CCOCC4)c3s2)CC1 [Pictilisib] (partner 1 µM)", "Value type": "relative viability", "Result": 0.658}
{"Molecule": "Clc1ccc(Nc2nnc(Cc3ccncc3)c3ccccc23)cc1 [Vatalanib] + C[C@@H](Oc1cc(-c2cnn(C3CCNCC3)c2)cnc1N)c1c(Cl)ccc(F)c1Cl [Crizotinib] (partner 1 µM)", "Value type": "relative viability", "Result": 0.956}

###

Reported relative viability is given for each of the following molecules.
Test system: NCI-H1734
Assay: relative viability (nuclei count vs DMSO), 5 days (fraction); higher = more cells survive
Conditions: first compound 0.08 µM

{"Molecule": "CCCCCCCCCCCC1=C(O)C(=O)C=C(O)C1=O [Embelin] + COc1cccc2cc(-c3nc([C@H]4CC[C@H](C(=O)O)CC4)n4ncnc(N)c34)[nH]c12 [OSI-027] (partner 0.5 µM)", "relative viability": 0.648}
{"Molecule": "CCCCCCCCCCCC1=C(O)C(=O)C=C(O)C1=O [Embelin] + C[C@@H](Oc1cc(-c2cnn(C3CCNCC3)c2)cnc1N)c1c(Cl)ccc(F)c1Cl [Crizotinib] (partner 1 µM)", "relative viability": 0.71}
{"Molecule": "CCCCCCCCCCCC1=C(O)C(=O)C=C(O)C1=O [Embelin] + O=C(c1cc(Cc2n[nH]c(=O)c3ccccc23)ccc1F)N1CCN(C(=O)C2CC2)CC1 [Olaparib] (partner 8 µM)", "relative viability": 0.623}
{"Molecule": "CCCCCCCCCCCC1=C(O)C(=O)C=C(O)C1=O [Embelin] + CCNC(=O)c1noc(-c2cc(C(C)C)c(O)cc2O)c1-c1ccc(CN2CCOCC2)cc1 [Luminespib] (partner 0.01 µM)", "relative viability": 0.201}
{"Molecule": "CCCCCCCCCCCC1=C(O)C(=O)C=C(O)C1=O [Embelin] + Cc1cc(Nc2cc(N3CCN(C)CC3)nc(Sc3ccc(NC(=O)C4CC4)cc3)n2)n[nH]1 [Tozasertib] (partner 0.1 µM)", "relative viability": 0.26}
